The measured values listed here are drawn from the OPERA property sets (Mansouri et al. 2018).

For each record, write down the corresponding logP.
// response body must contain only the number

Bench note: what logP did O=C(OCn1ncc2c(=O)[nH]cnc21)c1ccc(CN2CCOCC2)cc1 show?
1.12

Fill in the blank: the reported logP of O=C(O)c1ccc(O)c(O)c1O is ____.
1.05

Please give the measured logP for this compound: CCCCN1CCCCC1C(=O)Nc1c(C)cccc1C (stereo not drawn)
3.41

Suppose we examine the compound O=[N+]([O-])c1ccc(Cl)c(Cl)c1 ; what logP value has been reported?
3.12

What logP value was documented for this compound, OCCc1ccccn1 ?
0.12

Can you look up the measured logP of CN(C)CC/C=C1\c2ccccc2Sc2ccc(Cl)cc21 for me?
5.18

Which logP reading was recorded for the compound O=[N+]([O-])c1ccccc1CO ?
1.24

Item under review: CC(C)NC(C)(C)C . Reported logP?
1.56
